Reference source: PubChem BioAssay AID1159580

Assay: chemical genetic growth profiling, strain panel (AID 1159580);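 note: tested at 20 µM; growth read once vehicle control cultures reached saturation at 30 °C; 1 = growth at the plate median or of vehicle wells; lower values mean less growth of the strain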
Conditions: S. cerevisiae deletion strains, growth OD, locus YKL067W, strain YNK1
Screen size: about 5,500 compounds; about 2,000 (36%) were called active. About 18% were inconclusive and are not listed. Cut-off read from the data, not from the text of the source: active = normalized growth mostly below about 0.91 (no sharp cut-off); inconclusive = no clear call, values can overlap the other calls; inactive = mostly above about 0.92. The list shows a part of the results.
Hello, when you answer, please use one of the following outcomes: yes (1) for active, no (0) for inactive

Here are 2 compounds together with their reported answers.
Smiles Structure | Group
O=[N+]([O-])c1ccc(-c2noc(-c3ccno3)n2)o1 | yes (1)
COc1cccc(C2CCN(C(=O)c3cccc4ccccc34)CC2)c1 | no (0)

Problem: Each compound tested received a call. Report the one for "CC(=O)c1ccc(Cl)c(NS(=O)(=O)c2cc(Cl)c(Cl)cc2Cl)c1" .
Result: no (0)

Problem: Consider next the compound "Fc1cc(I)ccc1Nc1ccnc2cc(Cl)ccc12" in the same way.
Result: no (0)

Problem: Entry "COc1cc(Cl)ccc1N/N=C(/C#N)C(N)=O" please
Result: yes (1)
